Recorded values, source patent US9045482B2.

# target.under.test: human recombinant dopamine D2L receptor (Homo sapiens)
# Sequence (P14416 whole entry): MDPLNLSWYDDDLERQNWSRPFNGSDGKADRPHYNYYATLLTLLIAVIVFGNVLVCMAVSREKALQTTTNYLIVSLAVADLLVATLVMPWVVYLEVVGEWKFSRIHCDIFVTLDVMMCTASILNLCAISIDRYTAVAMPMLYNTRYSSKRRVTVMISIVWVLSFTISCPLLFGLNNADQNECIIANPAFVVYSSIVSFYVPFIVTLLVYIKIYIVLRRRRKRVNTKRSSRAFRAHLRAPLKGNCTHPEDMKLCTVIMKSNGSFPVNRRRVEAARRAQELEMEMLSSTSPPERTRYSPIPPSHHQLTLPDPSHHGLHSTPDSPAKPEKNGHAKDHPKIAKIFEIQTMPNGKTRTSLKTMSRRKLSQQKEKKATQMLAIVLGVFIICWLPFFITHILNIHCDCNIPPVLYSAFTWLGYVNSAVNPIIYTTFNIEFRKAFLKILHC
# assay.text: Dopamine D2L radioligand binding ([3H]Spiperone)
# reported.conditions: 1 μM ligand conc.
readout.label: Percent Inhibition of ligand binding Dopamine D2L (%)
Field: numeric (%). Do not append units.

Recorded results for 5 molecules are shown here.
Fc1ccc(CCn2c3c(c4cc(Cl)ccc42)CN2CCCC2C3)cc1 (stereo not drawn) ... 13
CC(=Cn1c2c(c3cc(C)ccc31)CN1CCCC1C2)c1ccc(F)cc1 (stereo in doubt) ... 11
CC(=Cn1c2c(c3cc(C)ccc31)C1CCCN1CC2)c1ccc(F)cc1 (stereo in doubt) ... 90
Fc1ccc(CCn2c3c(c4cc(Cl)ccc42)C2CCCN2CC3)cc1 (stereo not drawn) ... 9
CC(=Cn1c2c(c3cc(C)ccc31)CN1CCCCC1C2)c1ccc(F)cc1 (stereo in doubt) ... 28

Query :: Please report the recorded Percent Inhibition of ligand binding Dopamine D2L for CC(=Cn1c2c(c3cc(C)ccc31)C1CCCCN1CC2)c1ccc(F)cc1 (stereo in doubt) .
Result :: 94

====

Reported Percent Inhibition of ligand binding Dopamine D2L is given for each of the following molecules.
# target.under.test: human recombinant dopamine D2L receptor (Homo sapiens)
# assay.text: Dopamine D2L radioligand binding ([3H]Spiperone)
# reported.conditions: 0.1 μM ligand conc.
Field: numeric (%). Do not append units.

Recorded results for 6 molecules are shown here.
O=C(Cn1c2c(c3cccnc31)C1CCCN1CC2)N1CCCCC1 (centres unmarked) ... 24
CC(=Cn1c2c(c3cc(C)ccc31)C1CCCN1CC2)c1ccc(F)cc1 (stereo in doubt) ... 59
Cc1cnc2c(c1)c1c(n2CCc2ccc(C)nc2)CC2CCCN2C1 (centres unmarked) ... −3
Cc1ccc(CCn2c3c(c4cccnc42)C2CCCN2CC3)cn1 (centres unmarked) ... 6
Cc1ccc(CCn2c3c(c4cccnc42)CN2CCCC2C3)cn1 (centres unmarked) ... −3
Cc1cnc2c(c1)c1c(n2CCc2ccc(C)nc2)CCN2CCCC12 (centres unmarked) ... 1

Query :: Please report the recorded Percent Inhibition of ligand binding Dopamine D2L for O=C(Cn1c2c(c3cccnc31)CN1CCCC1C2)N1CCCCC1 (centres unmarked) .
Result :: −5

Query :: Please report the recorded Percent Inhibition of ligand binding Dopamine D2L for C/C(=C\n1c2c(c3cc(C)ccc31)C1CCCN1CC2)c1ccc(C)nc1 (centres unmarked) .
Result :: 3

====

# target.under.test: human recombinant serotonin (5-Hydroxytryptamine) 5-HT7 receptor (Homo sapiens)
# Sequence (P34969 whole entry): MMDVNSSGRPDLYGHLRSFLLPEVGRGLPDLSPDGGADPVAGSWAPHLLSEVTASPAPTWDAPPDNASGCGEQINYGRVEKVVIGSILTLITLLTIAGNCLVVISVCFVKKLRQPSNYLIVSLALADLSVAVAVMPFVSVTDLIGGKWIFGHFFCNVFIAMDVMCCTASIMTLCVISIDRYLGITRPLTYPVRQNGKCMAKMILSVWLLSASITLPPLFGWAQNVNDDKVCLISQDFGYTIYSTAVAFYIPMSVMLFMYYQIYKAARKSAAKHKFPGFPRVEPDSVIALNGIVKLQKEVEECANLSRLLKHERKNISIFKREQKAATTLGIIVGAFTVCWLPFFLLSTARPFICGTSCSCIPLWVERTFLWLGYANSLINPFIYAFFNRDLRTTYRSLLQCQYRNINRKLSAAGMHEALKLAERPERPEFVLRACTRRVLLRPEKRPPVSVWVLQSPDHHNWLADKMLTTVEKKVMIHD
# assay.text: Serotonin 5-HT7 radioligand binding ([3H]LSD)
# reported.conditions: 0.1 μM ligand concentration
Reported Percent Inhibition of ligand binding Serotonin 5-HT7 is given for each of the following compounds.
Field: numeric (%). Do not append units.

FC(F)(F)c1ccc(CCn2c3c(c4cccnc42)C2CCCN2CC3)cn1 (stereo not shown) ... 10

Query :: Please report the recorded Percent Inhibition of ligand binding Serotonin 5-HT7 for Cc1cnc2c(c1)c1c(n2CCc2ccc(C(F)(F)F)nc2)CCN2CCCC12 (stereo not shown) .
Result :: 22

Query :: Please report the recorded Percent Inhibition of ligand binding Serotonin 5-HT7 for O=C(Cn1c2c(c3cccnc31)CN1CCCC1C2)N1CCCCC1 (stereo not shown) .
Result :: 3

====

Reported Percent Inhibition of ligand binding Serotonin 5-HT5A is given for each of the following molecules.
# target.under.test: human recombinant serotonin (5-Hydroxytryptamine) 5-HT5A receptor (Homo sapiens)
# Construct: expressed in transfected cells; host or cells: Chinese hamster ovary (CHO-K1) cells
# Sequence (P47898 whole entry): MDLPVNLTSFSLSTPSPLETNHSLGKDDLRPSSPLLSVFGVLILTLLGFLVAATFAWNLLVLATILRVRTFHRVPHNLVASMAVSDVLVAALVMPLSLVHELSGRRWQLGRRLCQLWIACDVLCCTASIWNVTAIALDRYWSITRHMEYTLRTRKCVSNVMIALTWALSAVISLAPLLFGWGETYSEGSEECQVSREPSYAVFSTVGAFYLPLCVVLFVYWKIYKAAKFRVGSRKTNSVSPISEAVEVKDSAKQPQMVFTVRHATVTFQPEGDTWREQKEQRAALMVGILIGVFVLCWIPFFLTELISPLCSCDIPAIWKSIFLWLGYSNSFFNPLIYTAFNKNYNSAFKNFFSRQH
# assay.text: Serotonin 5-HT5A radioligand binding ([3H]LSD)
# reported.conditions: 0.1 μM ligand concentration
Field: numeric (%). Do not append units.

Cc1cnc2c(c1)c1c(n2CCc2ccc(C)nc2)CCN2CCCC12 (stereo not shown) ... 0
O=C(Cn1c2c(c3cccnc31)C1CCCN1CC2)N1CCCCC1 (stereo not shown) ... 8
Cc1ccc(CCn2c3c(c4cccnc42)C2CCCN2CC3)cn1 (stereo not shown) ... 6
C/C(=C\n1c2c(c3cc(C)ccc31)C1CCCN1CC2)c1ccc(C)nc1 (stereo not shown) ... 24

Query :: Please report the recorded Percent Inhibition of ligand binding Serotonin 5-HT5A for Cc1cnc2c(c1)c1c(n2CCc2ccc(C)nc2)CC2CCCN2C1 (stereo not shown) .
Result :: 25

Query :: Please report the recorded Percent Inhibition of ligand binding Serotonin 5-HT5A for O=C(Cn1c2c(c3cccnc31)CN1CCCC1C2)N1CCCCC1 (stereo not shown) .
Result :: 8

Query :: Please report the recorded Percent Inhibition of ligand binding Serotonin 5-HT5A for Cc1ccc(CCn2c3c(c4cccnc42)CN2CCCC2C3)cn1 (stereo not shown) .
Result :: 10
